target: human recombinant Bcl-XL protein (Homo sapiens); test: Fluorescence polarization test for inhibition of BCL-XL binding to FITC-BIM; details: 10 nM BCL-XL, 10 nM FITC-BIM, read-out: FP BCL-XL IC50
Sequence (Q07817 whole entry): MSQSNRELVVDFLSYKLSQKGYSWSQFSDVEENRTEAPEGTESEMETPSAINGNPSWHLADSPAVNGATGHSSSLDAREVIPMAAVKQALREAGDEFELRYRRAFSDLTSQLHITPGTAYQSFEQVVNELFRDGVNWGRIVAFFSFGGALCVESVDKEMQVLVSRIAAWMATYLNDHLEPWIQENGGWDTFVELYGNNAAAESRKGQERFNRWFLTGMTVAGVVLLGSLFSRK
ASSAY_METRIC: IC50

CHEM_SMILES	ASSAY_METRIC	EXPERIMENTAL_RESULT
C[C@H]1CN(c2ccc(C(=O)NS(=O)(=O)c3ccc(NC[C@@H]4COCCO4)c([N+](=O)[O-])c3)c(Oc3cnc4[nH]ccc4c3)c2)CCN1CC1=C(c2ccc(Cl)cc2)CCC(C)(C)C1	IC50	> 1000 nM
C[C@@H]1CN(c2ccc(C(=O)NS(=O)(=O)c3cc(F)c(NCC4CCOCC4)c([N+](=O)[O-])c3)c(Oc3cnc4[nH]ccc4c3)c2)CCN1CC1=C(c2ccc(Cl)cc2)CCC2(CC2)C1	IC50	> 1000 nM
C[C@@H]1CN(CC2=C(c3ccc(Cl)cc3)CC(C)(C)CC2)CCN1c1ccc(C(=O)NS(=O)(=O)c2ccc(NCC3CCN(C4COC4)CC3)c([N+](=O)[O-])c2)c(Oc2cnc3[nH]ccc3c2)c1	IC50	> 1000 nM

---

target: human recombinant Bcl-2 protein (Homo sapiens, UniProt P10415); construct: purchased Beijing Yigiao Shenzhou Biotechnology Co., Ltd. 10195-HOSE; experiment: Fluorescence polarization test for inhibition of BCL-2 binding to FITC-BIM; conditions: 5 nM BCL-2, 5 nM FITC-BIM, read-out: FP BCL-2 IC50
Sequence (P10415 whole entry): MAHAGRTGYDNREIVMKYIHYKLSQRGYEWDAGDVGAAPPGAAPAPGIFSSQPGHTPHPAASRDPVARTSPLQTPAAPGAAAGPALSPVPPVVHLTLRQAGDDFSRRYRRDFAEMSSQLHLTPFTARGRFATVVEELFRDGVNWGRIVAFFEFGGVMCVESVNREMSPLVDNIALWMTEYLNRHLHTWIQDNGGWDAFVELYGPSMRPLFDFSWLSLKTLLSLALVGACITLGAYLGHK
Measured IC50 accompanies every entry in the list below.
ASSAY_METRIC: IC50 (nM)

MOLECULE	ASSAY_METRIC	UOM	READING_QUALIFIER	EXPERIMENTAL_RESULT
C[C@H]1CN(c2ccc(C(=O)NS(=O)(=O)c3ccc(NC[C@@H]4COCCO4)c([N+](=O)[O-])c3)c(Oc3cnc4[nH]ccc4c3)c2)CCN1CC1=C(c2ccc(Cl)cc2)CCC(C)(C)C1 [Example 53]	IC50	nM	>	100
C[C@@H]1CN(c2ccc(C(=O)NS(=O)(=O)c3ccc(NC[C@H]4COCCO4)c([N+](=O)[O-])c3)c(Oc3cnc4[nH]ccc4c3)c2)CCN1CC1=C(c2ccc(Cl)cc2)CCC2(CC2)C1 [Example 36]	IC50	nM	=	4.78
C[C@H]1CN(c2ccc(C(=O)NS(=O)(=O)c3ccc(NC[C@@H]4COCCO4)c([N+](=O)[O-])c3)c(Oc3cnc4[nH]ccc4c3)c2)CCN1CC1=C(c2ccc(Cl)cc2)CC(C)(C)CC1 [Example 51]	IC50	nM	>	100
C[C@@H]1CN(c2ccc(C(=O)NS(=O)(=O)c3cc(F)c(NCC4CCOCC4)c([N+](=O)[O-])c3)c(Oc3cnc4[nH]ccc4c3)c2)CCN1CC1=C(c2ccc(Cl)cc2)CC(C)(C)C2(CC2)C1 [Example 33]	IC50	nM	=	3.16
C[C@@H]1CN(c2ccc(C(=O)NS(=O)(=O)c3ccc(NC[C@H]4COCCO4)c([N+](=O)[O-])c3)c(Oc3cnc4[nH]ccc4c3)c2)CCN1CC1=C(c2ccc(Cl)cc2)CC(C)(C)C(C)(C)C1 [Example 42]	IC50	nM	=	1.53
C[C@@H]1CN(c2ccc(C(=O)NS(=O)(=O)c3cc(F)c(NCC4CCN(C5COC5)CC4)c([N+](=O)[O-])c3)c(Oc3cnc4[nH]ccc4c3)c2)CCN1CC1=C(c2ccc(Cl)cc2)CC(C)(C)CC1 [Example 4]	IC50	nM	=	2.29
C[C@@H]1CN(c2ccc(C(=O)NS(=O)(=O)c3ccc(NCC4CCOCC4)c([N+](=O)[O-])c3)c(Oc3cnc4[nH]ccc4c3)c2)CCN1CC1=C(c2ccc(Cl)cc2)CCC(C)(C)C1 [Example 27]	IC50	nM	=	5.12
C[C@@H]1CN(c2ccc(C(=O)NS(=O)(=O)c3cc(F)c(NC[C@H]4COCCO4)c([N+](=O)[O-])c3)c(Oc3cnc4[nH]ccc4c3)c2)CCN1CC1=C(c2ccc(Cl)cc2)CCC(C)(C)C1 [Example 30]	IC50	nM	=	0.84
C[C@@H]1CN(c2ccc(C(=O)NS(=O)(=O)c3ccc(NCC4CCOCC4)c([N+](=O)[O-])c3)c(Oc3cnc4[nH]ccc4c3)c2)CCN1CC1=C(c2ccc(Cl)cc2)CCC2(CC2)C1 [Example 38]	IC50	nM	=	5.24
C[C@@H]1CN(c2ccc(C(=O)NS(=O)(=O)c3ccc(NC[C@H]4COCCO4)c([N+](=O)[O-])c3)c(Oc3cnc4[nH]ccc4c3)c2)CCN1CC1=C(c2ccc(Cl)cc2)CC(C)(C)C2(CC2)C1 [Example 34]	IC50	nM	=	3.33
C[C@@H]1CN(c2ccc(C(=O)NS(=O)(=O)c3ccc(NCC4CCOCC4)c([N+](=O)[O-])c3)c(Oc3cnc4[nH]ccc4c3)c2)CCN1CC1=C(c2ccc(Cl)cc2)CC(C)(C)CC1 [Example 2]	IC50	nM	=	2.56
C[C@@H]1CN(CC2=C(c3ccc(Cl)cc3)CC(C)(C)CC2)CCN1c1ccc(C(=O)NS(=O)(=O)c2cc(F)c(NCC3CCOCC3)c([N+](=O)[O-])c2)c(Oc2cnc3[nH]ccc3c2)c1 [Example 11]	IC50	nM	=	12.8
C[C@H]1CN(c2ccc(C(=O)NS(=O)(=O)c3cc(F)c(NC[C@@H]4COCCO4)c([N+](=O)[O-])c3)c(Oc3cnc4[nH]ccc4c3)c2)CCN1CC1=C(c2ccc(Cl)cc2)CC(C)(C)CC1 [Example 56]	IC50	nM	=	82
C[C@@H]1CN(c2ccc(C(=O)NS(=O)(=O)c3ccc(NC[C@H]4COCCO4)c([N+](=O)[O-])c3)c(Oc3cnc4[nH]ccc4c3)c2)C[C@@H](C)N1CC1=C(c2ccc(Cl)cc2)CC(C)(C)CC1 [Example 59]	IC50	nM	=	73.2
C[C@@H]1CN(c2ccc(C(=O)NS(=O)(=O)c3ccc(NCC4CCOCC4)c([N+](=O)[O-])c3)c(Oc3cnc4[nH]ccc4c3)c2)CCN1CC1=C(c2ccc(Cl)cc2)CC(C)(C)C(C)(C)C1 [Example 39]	IC50	nM	=	2.68
C[C@@H]1CN(c2ccc(C(=O)NS(=O)(=O)c3ccc(NC[C@@H]4COCCO4)c([N+](=O)[O-])c3)c(Oc3cnc4[nH]ccc4c3)c2)CCN1CC1=C(c2ccc(Cl)cc2)CC(C)(C)CC1 [Example 52]	IC50	nM	=	1.9
C[C@@H]1CN(c2ccc(C(=O)NS(=O)(=O)c3ccc(NC[C@H]4COCCO4)c([N+](=O)[O-])c3)c(Oc3cnc4[nH]ccc4c3)c2)CCN1CC1=C(c2ccc(Cl)cc2)CCC(C)(C)C1 [Example 29]	IC50	nM	=	1.6
C[C@@H]1CCC(CN2CCN(c3ccc(C(=O)NS(=O)(=O)c4cc(F)c(NC[C@H]5COCCO5)c([N+](=O)[O-])c4)c(Oc4cnc5[nH]ccc5c4)c3)[C@H](C)C2)=C(c2ccc(Cl)cc2)C1 [Example 26]	IC50	nM	=	1.63
